Hi there, I'd appreciate the recorded IC50 for every entry that follows.
- Test system: PC3 prostate cancer cells
- procedure_details: MTT cytotoxicity assay, PC3
- Assay type: cell-based
- test_context: Homo sapiens; PC3; 72 hours continuous exposure; read-out: IC50 values (mean ± SD)
Express your answer in nM, writing the number without its unit.

Query: Recorded IC50 for O=C(NNC(=O)c1ccccc1O)C1=CC2C=CC=CC2C=C1O (stereo not drawn) , please?
Reply: 3250

Query: Please give the result for O=C(NNC(O)c1cc2ccccc2cc1O)c1cc2ccccc2cc1O (stereo not drawn) too.
Reply: 2000

Query: Please give the result for CC[C@@]1(O)C(=O)OCc2c1cc1n(c2=O)Cc2cc3ccccc3nc2-1 [CPT, Camptothecin, reference compound] too.
Reply: 900
